Tested on: Strep. pyogenes
Test: in vivo activity in mice infected with a lethal inoculum, survivors
Details: Streptococcus pyogenes; oral, 50 mg./kg., survivors/treated mice; read-out: IN VIVO Survivors (PO) Strep. pyogenes (converted)
Assignment: determine reported responders at 50 mg/kg for the given compounds.
Express your answer in %, writing the number without its unit.

What does the data say about its responders at 50 mg/kg? Entry: CC(=O)c1ccc2c(c1)[n+]([O-])c(C)c(C(N)=O)[n+]2[O-] [NH2 6-COCH3 CH3] 90

What does the data say about its responders at 50 mg/kg? Entry: CC(=O)c1ccc2c(c1)[n+]([O-])c(C(N)=O)c(C)[n+]2[O-] [NH2 7-COCH3 CH3] 80

What does the data say about its responders at 50 mg/kg? Entry: CNC(=O)c1c(C)[n+]([O-])c2ccc(C(C)=O)cc2[n+]1[O-] [NHCH3 7-COCH3 CH3] 90

What does the data say about its responders at 50 mg/kg? Entry: CC(=O)c1ccc2c(c1)[n+]([O-])c(C)c(C(=O)NCCO)[n+]2[O-] [NHCH2 CH2 OH 6-COCH3 CH3] 20

###

Test system: E. coli
Test: in vitro antibacterial activity, two-fold serial dilution in Brain-Heart Infusion Broth, MIC
Assay type: cell-based
Conditions: Escherichia coli; Brain-Heart Infusion Broth, overnight, anaerobic; read-out: IN VITRO MIC E. coli
measured endpoint: MIC (µg/mL)
Express your answer in µg/mL, writing the number without its unit.

What does the data say about its MIC? Entry: CNC(=O)c1c(C)[n+]([O-])c2ccc(C(C)=O)cc2[n+]1[O-] 0.391

What does the data say about its MIC? Entry: CC(=O)c1ccc2c(c1)[n+]([O-])c(C(=O)N(C)C)c(C)[n+]2[O-] 6.25

What does the data say about its MIC? Entry: CNC(=O)c1c(C)[n+]([O-])c2ccc(CO)cc2[n+]1[O-] 6.25

What does the data say about its MIC? Entry: Cc1c(C(N)=O)[n+]([O-])c2cc(C3(C)OCCO3)ccc2[n+]1[O-] 12.5

###

Test system: Strep. pyogenes
Assay: in vivo activity in mice infected with a lethal inoculum, survivors
Settings: Streptococcus pyogenes; oral, 50 mg./kg., survivors/treated mice; read-out: IN VIVO Survivors (PO) Strep. pyogenes (converted)
Assignment: determine reported responders at 50 mg/kg for the given molecules.
Express your answer in %, writing the number without its unit.

What does the data say about its responders at 50 mg/kg? Entry: Cc1c(C(N)=O)[n+]([O-])c2cc(C3(C)OCCO3)ccc2[n+]1[O-] [NH2 7-OO.angle.C.angle.CH3 CH3] 80

What does the data say about its responders at 50 mg/kg? Entry: CNC(=O)c1c(C)[n+]([O-])c2ccc(CO)cc2[n+]1[O-] [NHCH3 7-CH2 OH CH3] 10

What does the data say about its responders at 50 mg/kg? Entry: CC(=O)c1ccc2c(c1)[n+]([O-])c(C(=O)N(C)C)c(C)[n+]2[O-] [N(CH3)2 7-COCH3 CH3] 20

What does the data say about its responders at 50 mg/kg? Entry: CNC(=O)c1c(C)[n+]([O-])c2cc(C(C)=O)ccc2[n+]1[O-] [NHCH3 6-COCH3 CH3] 40
